Numbers sourced from patent US20250353873A1.

As shown below, each of these substances has a reported APOE RNA (% control) Spinal Cord value.
- Tested on: human APOE RNA
- experimental-details: Activity in APOE C57BL/6NTac-Apoeem7250 knock-in mice, single ICV bolus, 16 weeks (Example 12)
- Assay type: in vivo
- run-parameters: spinal cord; single ICV bolus 300 μg; 16 weeks post treatment; normalized to mouse Ppia
Strand notation (5' to 3'): a small letter for the sugar, then the base; units joined by * are phosphorothioate-linked, units joined directly phosphodiester-linked; [ ] holds rarer units or linkages, { } end groups; capitals alone tell only the bases. [ms] = mesyl phosphoramidate linkage; e = 2'-O-(2-methoxyethyl) (MOE); k = constrained ethyl (cEt); [5mC] = 5-methylcytosine; d = 2'-deoxy (DNA)
measured-endpoint: APOE RNA (% control) Spinal Cord

- 1693102: 6-10-4 MOE gapmer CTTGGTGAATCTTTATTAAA, linkages ssssoszzzssssszssss (e[5mC]*eT*eT*eG*eGeT*dG[ms]dA[ms]dA[ms]dT*d[5mC]*dT*dT*dT*dA[ms]dT*eT*eA*eA*eA) [compound 1693102]: 41
- 1785600 (k[5mC]*kT*kT*dG[ms]dG[ms]dT[ms]dG*dA*dA*dT*d[5mC]*dT[ms]dT[ms]dT[ms]dA*dT*kT*kA*dA[ms]kA; antisense) [Compound 1785600]: 30
- 1693056: 5-10-5 MOE gapmer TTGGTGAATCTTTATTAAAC, linkages ssosszzzssssszsosss (antisense eT*eT*eGeG*eT*dG[ms]dA[ms]dA[ms]dT*d[5mC]*dT*dT*dT*dA[ms]dT*eTeA*eA*eA*e[5mC]) [compound 1693056]: 118
- 1736514 (e[5mC]*eTeT*eG*kG*kT*dG[ms]dA[ms]dA[ms]dT*d[5mC]*dT*dT*dT*dA[ms]dT*eT*eA*eA*eA; antisense) [Compound 1736514]: 16
- 1693070: 5-10-5 MOE gapmer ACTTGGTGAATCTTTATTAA, linkages ssssssszzzszsssosss (antisense eA*e[5mC]*eT*eT*eG*dG*dT*dG[ms]dA[ms]dA[ms]dT*d[5mC][ms]dT*dT*dT*eAeT*eT*eA*eA) [compound 1693070]: 76
- 1778130: modified oligonucleotide complementary to human APOE RNA (eA*e[5mC]eTeTeG*kG*dT*dG[ms]dA[ms]dA*dT*d[5mC]*dT*dT*dT*dA[ms]kTkT*eA*eA; antisense) [compound 1778130]: 15
- 1693051: 5-10-5 MOE gapmer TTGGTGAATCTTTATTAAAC, linkages ssosszzzsssssssosss (antisense eT*eT*eGeG*eT*dG[ms]dA[ms]dA[ms]dT*d[5mC]*dT*dT*dT*dA*dT*eTeA*eA*eA*e[5mC]) [compound 1693051]: 79
- 1681004: 5-10-5 MOE gapmer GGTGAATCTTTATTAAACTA, linkages ssooszsssszzszsooss (antisense eG*eG*eTeGeA*dA[ms]dT*d[5mC]*dT*dT*dT[ms]dA[ms]dT*dT[ms]dA*eAeAe[5mC]*eT*eA) [compound 1681004]: 61

----------
Entries and their APOE RNA (% UTC)
- System: human APOE RNA
- experimental-details: Dose-dependent reduction of human APOE RNA in HepG2 cells, electroporation, 20,000 cells per well, average of GAPDH- and PPIA-normalized results (Example 4, Table 12)
- Format: cell-based
- run-parameters: 82 nM, HepG2, 20,000 cells per well
Strand notation (5' to 3'): a small letter for the sugar, then the base; units joined by * are phosphorothioate-linked, units joined directly phosphodiester-linked; [ ] holds rarer units or linkages, { } end groups; capitals alone tell only the bases. [ms] = mesyl phosphoramidate linkage; e = 2'-O-(2-methoxyethyl) (MOE); k = constrained ethyl (cEt); [5mC] = 5-methylcytosine; d = 2'-deoxy (DNA)
measured-endpoint: APOE RNA (% UTC)

- Aes^mCeoTeoTesGesGksTdsGdzAdzAdzTds^mCdsTdsTdsTdsAdzTksTksAesAe (eA*e[5mC]eTeT*eG*kG*dT*dG[ms]dA[ms]dA[ms]dT*d[5mC]*dT*dT*dT*dA[ms]kT*kT*eA*eA) [Compound No. 1757576]: 77
- 1785598: modified oligonucleotide complementary to human APOE RNA (k[5mC]*kT*kT*dG[ms]dG[ms]dT[ms]dG[ms]dA[ms]dA[ms]dT*d[5mC]*dT*dT*dT*dA*dT[ms]kT*kA*dA[ms]kA; antisense) [compound 1785598]: 75
- 1778128: modified oligonucleotide complementary to human APOE RNA (eA*e[5mC]eTeTkGkG*dT*dG[ms]dA[ms]dA*dT*d[5mC]*dT*dT*dT*dA[ms]kTeT*eA*eA; antisense) [compound 1778128]: 67
- ^mCksTksTksGdzGdzTdzGdzAdzAdzTds^mCdsTdsTdsTdsAdsTdsTksAksAdzAk (antisense k[5mC]*kT*kT*dG[ms]dG[ms]dT[ms]dG[ms]dA[ms]dA[ms]dT*d[5mC]*dT*dT*dT*dA*dT*kT*kA*dA[ms]kA) [Compound No. 1785602]: 70
- 1785617: modified oligonucleotide complementary to human APOE RNA (k[5mC]*dT[ms]dT[ms]kG*dG[ms]kT*dG[ms]dA[ms]dA[ms]dT[ms]d[5mC]*dT*dT*dT*dA*dT*kT*kA*dA[ms]kA; antisense) [compound 1785617]: 68
- 1778131: modified oligonucleotide complementary to human APOE RNA (eA*e[5mC]eTeTeGkG*dT*dG[ms]dA[ms]dA*dT*d[5mC]*dT*dT*dT*dA[ms]kTkT*eA*eA; antisense) [compound 1778131]: 70
- 1785599: modified oligonucleotide complementary to human APOE RNA (k[5mC]*kT*kT*dG[ms]dG[ms]dT[ms]dG[ms]dA[ms]dA[ms]dT[ms]d[5mC]*dT*dT*dT*dA*dT*kT*kA*dA[ms]kA; antisense) [compound 1785599]: 81
- 1778130: modified oligonucleotide complementary to human APOE RNA (eA*e[5mC]eTeTeG*kG*dT*dG[ms]dA[ms]dA*dT*d[5mC]*dT*dT*dT*dA[ms]kTkT*eA*eA; antisense) [compound 1778130]: 72
